Overview of reported melting point across a group of compounds:

Here is how some compounds turned out for melting point.
compound	result
C[Si](C)(C)/C=C/c1c(C(=O)O)nc(Cl)c(F)c1N [Compound 15]	100 to 105 °C
C/C=C/c1c(C(=O)O)nc(Cl)c(F)c1N [Compound 13]	153 to 155 °C
COC(=O)c1nc(Cl)c(F)c(N)c1/C=C/[Si](C)(C)C [Compound 7]	103 to 105 °C
C/C=C\c1c(C(=O)O)nc(Cl)c(F)c1N [Compound 12]	141 to 143 °C
COC(=O)c1nc(Cl)c(F)c(N)c1/C=C/Cl [Compound 8]	128 to 130 °C

Prompt line: Which melting point reading was recorded for the compound Nc1c(F)c(Cl)nc(C(=O)O)c1/C=C/Cl [Compound 16] ?
Response line: 152 to 157 °C

Prompt line: Suppose we examine the compound C=Cc1c(N)cc(Cl)nc1C(=O)O [Compound 11, 4-amino-6-chloro-3-vinylpicolinic acid] ; what melting point value has been reported?
Response line: 146 to 148 °C

Prompt line: Query (compound): C/C=C/c1c(C(=O)OC)nc(Cl)c(F)c1N [Compound 5] ; field requested: melting point
Response line: 107 to 109 °C

Prompt line: So what's the measured melting point for this one? C=Cc1c(C(=O)O)nc(Cl)c(Cl)c1N [Compound 10]
Response line: 190 to 193 °C (dec.)

Prompt line: GET /values?readout=melting point&item= C=Cc1c(C(=O)OC)nc(Cl)c(Cl)c1N [Compound 1]
Response line: 96 to 97 °C

Prompt line: Given the compound C=Cc1c(C(=O)O)nc(Cl)c(F)c1N [Compound 9] , what is its reported melting point?
Response line: 164 to 166 °C

Prompt line: // query melting point value for entry C=Cc1c(C(=O)OC)nc(Cl)c(F)c1N [Compound 2]
Response line: 99 to 100 °C

Prompt line: What does the data say about its melting point? Entry: C=C(F)c1c(C(=O)OC)nc(Cl)c(F)c1N [Compound 6]
Response line: 98 to 100 °C

Prompt line: For C=Cc1c(N)cc(Cl)nc1C(=O)OC [Compound 3] , what is its reported melting point?
Response line: 53 to 54 °C

The measurements presented in this section are drawn from patent US8835409B2.
